These data points were gathered from the supplement of paper PMC10567573.

B1: KCNAB2 (parent)
chain: IPPYSRASLKGYQWLKDKILSEEG

Variants of: B1
ASSAY_EXPLANATION: protein stability index of a GFP-peptide fusion (GPS, HEK-293T) (PSI 1-6); higher = more stable;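 note: lentivirally expressed fusions sorted by FACS into six bins by GFP to DsRed ratio, PSI derived from sequencing read proportions per bin multiplied by bin number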
MEASUREMENT_CONDITIONS: c terminus: a fixed tail appended
Recorded protein stability index values for a group of variants are listed next.
MEASURED_ENDPOINT: protein stability index

{"MUTATION_NOTATION": "R6P", "QUANTITATIVE_READOUT": 2.67}
{"MUTATION_NOTATION": "L15C", "QUANTITATIVE_READOUT": 3.47}
{"MUTATION_NOTATION": "S21G", "QUANTITATIVE_READOUT": 1.86}
{"MUTATION_NOTATION": "E22Q", "QUANTITATIVE_READOUT": 2.47}
{"MUTATION_NOTATION": "L9T", "QUANTITATIVE_READOUT": 3.14}
{"MUTATION_NOTATION": "D17K", "QUANTITATIVE_READOUT": 2.04}
{"MUTATION_NOTATION": "E23V", "QUANTITATIVE_READOUT": 2.5}
{"MUTATION_NOTATION": "P2K", "QUANTITATIVE_READOUT": 2.02}
{"MUTATION_NOTATION": "P2Q", "QUANTITATIVE_READOUT": 2.92}
{"MUTATION_NOTATION": "L15E", "QUANTITATIVE_READOUT": 3.19}
{"MUTATION_NOTATION": "K18F", "QUANTITATIVE_READOUT": 1.96}
{"MUTATION_NOTATION": "G24V", "QUANTITATIVE_READOUT": 1.77}
{"MUTATION_NOTATION": "D17L", "QUANTITATIVE_READOUT": 1.93}
{"MUTATION_NOTATION": "Q13C", "QUANTITATIVE_READOUT": 1.84}
{"MUTATION_NOTATION": "L9N", "QUANTITATIVE_READOUT": 3.15}
{"MUTATION_NOTATION": "G24P", "QUANTITATIVE_READOUT": 1.95}
{"MUTATION_NOTATION": "K10N", "QUANTITATIVE_READOUT": 2.42}
{"MUTATION_NOTATION": "I19H", "QUANTITATIVE_READOUT": 2.98}
{"MUTATION_NOTATION": "K18D", "QUANTITATIVE_READOUT": 2.77}
{"MUTATION_NOTATION": "R6C", "QUANTITATIVE_READOUT": 1.94}
{"MUTATION_NOTATION": "W14D", "QUANTITATIVE_READOUT": 3.73}
{"MUTATION_NOTATION": "L20C", "QUANTITATIVE_READOUT": 2.63}
{"MUTATION_NOTATION": "I19D", "QUANTITATIVE_READOUT": 3.73}
{"MUTATION_NOTATION": "E23H", "QUANTITATIVE_READOUT": 1.76}
{"MUTATION_NOTATION": "Q13E", "QUANTITATIVE_READOUT": 2.34}
{"MUTATION_NOTATION": "Y4E", "QUANTITATIVE_READOUT": 4.16}
{"MUTATION_NOTATION": "S5T", "QUANTITATIVE_READOUT": 2.42}
{"MUTATION_NOTATION": "L20N", "QUANTITATIVE_READOUT": 3.06}
{"MUTATION_NOTATION": "K18S", "QUANTITATIVE_READOUT": 3.17}
{"MUTATION_NOTATION": "A7M", "QUANTITATIVE_READOUT": 1.8}
{"MUTATION_NOTATION": "A7Q", "QUANTITATIVE_READOUT": 2.58}
{"MUTATION_NOTATION": "E23D", "QUANTITATIVE_READOUT": 1.51}
{"MUTATION_NOTATION": "P3H", "QUANTITATIVE_READOUT": 1.74}
{"MUTATION_NOTATION": "Y4D", "QUANTITATIVE_READOUT": 4.41}
{"MUTATION_NOTATION": "L9W", "QUANTITATIVE_READOUT": 2.22}
{"MUTATION_NOTATION": "K16E", "QUANTITATIVE_READOUT": 2.19}
{"MUTATION_NOTATION": "L20M", "QUANTITATIVE_READOUT": 2.47}
{"MUTATION_NOTATION": "S5Y", "QUANTITATIVE_READOUT": 2.79}
{"MUTATION_NOTATION": "Y12S", "QUANTITATIVE_READOUT": 4.02}
{"MUTATION_NOTATION": "K18C", "QUANTITATIVE_READOUT": 2.51}
{"MUTATION_NOTATION": "L20E", "QUANTITATIVE_READOUT": 3.75}
{"MUTATION_NOTATION": "S8I", "QUANTITATIVE_READOUT": 1.58}
{"MUTATION_NOTATION": "L9Q", "QUANTITATIVE_READOUT": 2.28}
{"MUTATION_NOTATION": "W14E", "QUANTITATIVE_READOUT": 3.59}
{"MUTATION_NOTATION": "W14A", "QUANTITATIVE_READOUT": 3.76}
{"MUTATION_NOTATION": "S21F", "QUANTITATIVE_READOUT": 2.28}
